Target Under Test: Calcitonin gene-related peptide type 1 receptor (Homo sapiens, UniProt O60894+Q16602)
Sequence (Q16602 whole entry, one chain of several): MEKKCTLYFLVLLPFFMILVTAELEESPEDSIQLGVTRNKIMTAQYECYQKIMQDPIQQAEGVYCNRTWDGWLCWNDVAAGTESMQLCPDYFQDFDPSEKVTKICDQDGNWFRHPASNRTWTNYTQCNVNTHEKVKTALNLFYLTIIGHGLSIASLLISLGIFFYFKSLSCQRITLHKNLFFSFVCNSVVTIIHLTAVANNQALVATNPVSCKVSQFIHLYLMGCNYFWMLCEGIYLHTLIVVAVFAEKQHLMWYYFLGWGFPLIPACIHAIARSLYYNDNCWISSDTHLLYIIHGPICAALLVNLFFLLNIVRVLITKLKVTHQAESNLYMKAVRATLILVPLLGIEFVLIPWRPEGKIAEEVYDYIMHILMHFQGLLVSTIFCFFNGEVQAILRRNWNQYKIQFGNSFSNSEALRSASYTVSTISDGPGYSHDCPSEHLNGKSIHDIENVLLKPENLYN
Protocol Details: CGRP1 receptor affinity on human neuroblastoma cells SK-N-MC, which selectively express the human CGRP1 receptor.
Observable: IC50

Check out these entries, answers already filled in.
| Substance | IC50 |
| --- | --- |
| H-FVPTNVGSPAF-OH | > 10 µM |
| H-FVPTNVGSEPF-OH | > 10 µM |
| H-YVPTNVGSAAF-OH | > 10 µM |
| H-FVPTDVGSEAF-OH | > 3 µM |

Lookup: Provide only the value of recorded IC50 for H-FVPPNVGSEAF-OH
Found: > 10 µM
